All values here come from paper PMC9352680.

Biological target: T1, PUF4 RNA-binding domain (Saccharomyces cerevisiae, UniProt P25339 537-888)
T1 sequence: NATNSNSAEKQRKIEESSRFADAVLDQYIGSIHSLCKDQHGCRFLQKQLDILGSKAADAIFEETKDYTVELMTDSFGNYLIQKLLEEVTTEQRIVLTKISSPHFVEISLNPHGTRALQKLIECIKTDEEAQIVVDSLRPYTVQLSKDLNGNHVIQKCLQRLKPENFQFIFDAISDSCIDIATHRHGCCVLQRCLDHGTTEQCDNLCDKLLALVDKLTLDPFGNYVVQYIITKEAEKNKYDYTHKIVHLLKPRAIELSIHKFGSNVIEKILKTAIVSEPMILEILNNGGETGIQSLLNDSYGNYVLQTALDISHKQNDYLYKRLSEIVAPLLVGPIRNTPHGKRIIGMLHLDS
Experiment: Mg; RNA-MaP; 20 mM Na-HEPES pH 7.4, 30 mM KOAc, 0.75 mM MgCl2, 0.1% Tween-20, 5% glycerol, 0.1 mg/mL BSA, 2 mM DTT; 25 C; 0.0125-409.6 nM protein
Conditions: tags: N-His6-TEV cleaved; C-SNAP kept, Cy3B-labelled; label: tethered on chip by stalled RNA polymerase
pKd: −log10 of the molar value.
pKd vs 7: at or above is 1, below is 0.

Would you please look over these solved cases?
[
  {
    "binder": "ACAAACUCCAUUAUUAACAAAC (ssRNA) [Ib_S3_P5E.1_K5.1_C5.1_H5.1_[G2C]_[T3C]_A5.1_F5.1_T5.1]",
    "category": 0
  },
  {
    "binder": "UCUCUUACACACUUAUUAAAUCUCUU (ssRNA) [Id_ii_S1_P5E.4_K5.3_C5.2_[C-2A]_[T-1C]_H5.3_A5.1_F5.1_T5.2_[T11A]]",
    "category": 0
  },
  {
    "binder": "UCUCUUUGUAUCUAUCUCUCUU (ssRNA) [Ic_S1_P5E.1_K5.1_C5.1_H5.1_A5.1_[T6C]_[A7T]_F5.1_[T8A]_[A10C]_T5.1]",
    "category": 1
  },
  {
    "binder": "Ie_S2_P5E.1_K5.1_C5.1_H5.1_A5.1_F5.1_[+10TTT]_T5.1 (ssRNA) RNA: UUUGAUUAAUAUGAUAUCGUUCUUUCUUGUAUUAUUAUUUUUCUUUCUCGAUAUCAUAUUAAUCUUU",
    "category": 1
  },
  {
    "binder": "Ic_S2_P4E.1_K4.1_C4.1_H4.1_A4.1_[T5G]_[A6C]_F4.1_[T8C]_T4.1 (ssRNA) RNA: UUUGAUUAAUAUGAUAUCGUUCUUUCUUGUAGCUCAUUCUUUCUCGAUAUCAUAUUAAUCUUU",
    "category": 0
  }
]

Input: Determine whether this binder has pKd no lower than 7: Ib_S2_P5E.1_K5.1_C5.1_H5.1_[T1A]_A5.1_[T5C]_F5.1_T5.1 (ssRNA) RNA: UUUGAUUAAUAUGAUAUCGUUCUUUCUAGUACUAUUAUUCUUUCUCGAUAUCAUAUUAAUCUUU
Output: 0

Input: Hello, I need to know if UCUCUUUGUAUCAGUUCUCUU (ssRNA) [Ic_S1_P4E.1_K4.1_C4.1_H4.1_A4.1_[A6C]_[T7A]_F4.1_[T8G]_[A9T]_T4.1] has measured pKd not below 7. Thanks!
Output: 0
